# SYSTEM UNDER TEST: Keap1 Kelch domain, Q14145
# Sequence (Q14145 whole entry, the tested form may be a part): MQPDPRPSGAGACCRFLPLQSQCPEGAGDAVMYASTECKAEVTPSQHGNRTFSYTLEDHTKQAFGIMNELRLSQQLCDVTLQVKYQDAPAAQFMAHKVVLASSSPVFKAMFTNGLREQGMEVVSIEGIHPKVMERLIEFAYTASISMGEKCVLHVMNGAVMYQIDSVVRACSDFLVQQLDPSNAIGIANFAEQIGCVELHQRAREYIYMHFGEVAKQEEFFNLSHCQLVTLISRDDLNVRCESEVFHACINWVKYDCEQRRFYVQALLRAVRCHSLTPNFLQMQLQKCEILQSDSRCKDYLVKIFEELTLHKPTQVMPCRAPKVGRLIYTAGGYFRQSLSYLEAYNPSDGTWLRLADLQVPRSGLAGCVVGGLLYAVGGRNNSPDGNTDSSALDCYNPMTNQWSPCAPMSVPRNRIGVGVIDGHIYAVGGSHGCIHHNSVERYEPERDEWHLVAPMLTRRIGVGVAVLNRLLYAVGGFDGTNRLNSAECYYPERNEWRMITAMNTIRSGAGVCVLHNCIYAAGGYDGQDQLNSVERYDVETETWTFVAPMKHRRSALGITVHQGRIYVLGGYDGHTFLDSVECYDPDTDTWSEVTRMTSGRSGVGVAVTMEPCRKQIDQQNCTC
# TEST PROTOCOL: other TR-FRET
# STUDY CONDITIONS: modification not given
pIC50: −log10 of the molar value.
PARAMETER MEASURED: pIC50

RRDELEPLTGFRR [Peptide 1-3] ... 7.41
DELEPLTGFRRR [Peptide 1-8] ... 7.39

(I) RDELEPLTGFRRR [Peptide 1-9]
(II) DELEPLTGFRR [Peptide 1-7]
INPUT: Hey, between I and II which has a smaller measured pIC50? Write the label of whichever entry you select.
OUTPUT: I
(I: 7.83, II: 8.21)

Data origin, for the record: patent US20260374828
